Hey, just so you know, these numbers are from ChEMBL document CHEMBL1131510.

# System: Fatty-acid amide hydrolase 1 (Homo sapiens)
# Sequence (O00519 whole entry): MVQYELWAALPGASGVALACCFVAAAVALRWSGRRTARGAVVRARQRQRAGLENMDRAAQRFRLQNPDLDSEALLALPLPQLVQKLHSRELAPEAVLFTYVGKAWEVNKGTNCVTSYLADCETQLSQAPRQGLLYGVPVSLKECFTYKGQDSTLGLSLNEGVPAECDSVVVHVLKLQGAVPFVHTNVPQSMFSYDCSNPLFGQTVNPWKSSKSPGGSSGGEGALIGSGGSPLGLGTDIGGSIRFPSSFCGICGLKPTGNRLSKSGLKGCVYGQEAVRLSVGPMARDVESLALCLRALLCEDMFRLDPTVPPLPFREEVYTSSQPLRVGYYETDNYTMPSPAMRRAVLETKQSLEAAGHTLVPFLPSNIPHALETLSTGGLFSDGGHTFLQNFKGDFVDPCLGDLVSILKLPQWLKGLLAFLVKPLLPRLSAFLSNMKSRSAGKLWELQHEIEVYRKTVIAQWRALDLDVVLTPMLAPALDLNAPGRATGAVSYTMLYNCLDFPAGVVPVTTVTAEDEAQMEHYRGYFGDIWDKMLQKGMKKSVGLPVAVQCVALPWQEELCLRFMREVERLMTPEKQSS
# maps each entry to its Ki
Express it in nM; write the number only.

Take a look at these entries with their results.
CCCCCCCC/C=C\CCCCCCCC(=O)C(F)(F)F	250
CCCCCC[C@H](C)OC(=O)CC(=O)CBr	1100
CCCCCCCOC(=O)CC(=O)CBr	550

Here is the next item to consider.
### Prompt What Ki value was documented for this molecule, CCCCCC[C@@H](C)OC(=O)CC(=O)CBr ?
### Response 800
